Provenance of the data: patent US8859756B2

Experiment: Cytotoxicity, MTT Assay (table footnote a)
Format: cell-based
Property label: CC50

Ask | Give the measured CC50 of CNC(=O)c1c(-c2ccc(F)cc2)oc2cc(N(CCO)S(C)(=O)=O)c(C3CC3)cc12 [Compound 44, reference compound] .
Reply | > 10 µM

----------
Assay: Cell Cytotoxicity Assays (MTS dye)
Assay type: cell-based
Conditions: human, 50% inhibition value, cell line not given
Property label: CC50 at 8 days

Solved entries (count: 3):
COc1nc(N)nc2c1ncn2[C@@H]1O[C@H](COP(=O)(NCc2ccccc2)OCCSC(=O)C(C)(C)CO)[C@@H](O)[C@@]1(C)O (single isomer, unassigned) [Compound 131a] = > 20 µM
CC(C)(CO)C(=O)SCCOP(=O)(NCc1ccccc1)OC[C@H]1O[C@@H](n2cnc3c(=O)[nH]c(N)nc32)[C@](C)(O)[C@@H]1O (single isomer, unassigned) [Compound 132a] = > 20 µM
COc1nc(N)nc2c1ncn2[C@@H]1O[C@H](COP(=O)(N[C@@H](C)C(=O)OCC(C)(C)C)Oc2cccc3ccccc23)[C@@H](O)[C@@]1(C)F (stereo partly shown) = > 20 µM

// next entry
Ask | Give the measured CC50 at 8 days of COc1nc(N)nc2c1ncn2[C@@H]1O[C@H](COP(=O)(N[C@@H](C)C(=O)OCC(C)(C)C)Oc2cccc3ccccc23)[C@@H](O)[C@@]1(C)O (stereo partly shown) .
Reply | > 1 µM
